- ASSAY_EXPLANATION: E. coli growth modulation, two-sided OD650, primary screen, E. coli filamentation project, strain DRC41, 24 h (AID 1093);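 also: MC1000 strain lacking acrAB efflux and sulA so SOS filamentation is blocked; test concentration not given here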
- EXPERIMENTAL_PARAMETERS: OD650, 24 h, higher = more signal, called active from +8 up or from −8 down
Parameter threshold = 1. Response is true (1) when z-score meets or exceeds it, else false (0).

| COMPOUND | QUALITATIVE_LABEL |
| --- | --- |
| CO[C@H]1COC(=O)[C@H](CCSC)NC(=O)CC=C[C@@H](C)COC(=O)[C@@H](OCc2ccccc2)C=C[C@@H]1C | false (0) |
| CO[C@H]1COC(=O)[C@@H](C)COC(=O)[C@H](Cc2ccccc2)NC(=O)CC=C[C@H]1C | false (0) |
| Cc1ccc(N2C(=O)c3ccccc3[C@@H](C(=O)NCC(F)(F)F)[C@@H]2c2ccc(CO)cc2)nc1 | true (1) |
| CC(C)(C)OC(=O)CC[C@@]1(C(=O)NCc2ccccc2)N=C(c2ccc(OCCCO)cc2)O[C@@H]1c1ccccc1 | true (1) |
| O=C1O[C@H](c2ccccc2)[C@H](c2ccccc2)N2[C@H]1[C@@H](C(=O)Nc1nc3ccccc3s1)[C@]1(C(=O)Nc3ccc(C#CC4=CCCCC4)cc31)[C@H]2c1ccccc1OCCO | false (0) |
| Cc1ccc(N2C(=O)c3ccccc3[C@](C)(C(=O)NCC(C)C)[C@@H]2c2ccc(CO)cc2)nc1 | false (0) |
| CC[C@@H]1C=C(C(=O)O)[C@H](c2ccccc2)N1S(=O)(=O)c1ccc([N+](=O)[O-])cc1 | false (0) |
| C=CC[C@@]1(C(=O)N2CCOCC2)N=C(c2ccc(OCCCO)cc2)O[C@@H]1c1ccccc1 | true (1) |
| O=C1c2ccccc2[C@](Cc2ccccc2I)(C(=O)NCc2ccccc2)[C@H](c2ccc(CO)cc2)N1Cc1ccccc1C(F)(F)F | true (1) |
| COc1cc(CO)cc(I)c1O[C@H]1C=C(C(=O)NCCO)C[C@@H](N(CC2CCCCC2)C(=O)c2cc3ccccc3oc2=O)[C@@H]1O | true (1) |
| CN(C)c1ccc(C(O)C2C=CC3C(=O)NC(=O)C3N2Nc2ccc(Cl)cc2Cl)cc1 (stereo not given) | false (0) |
| C#CCCCON=C1C[C@@H](O)[C@@H](O)[C@@H]2[C@@H]3C(=O)N(Cc4ccc5c(c4)OCO5)C(=O)[C@@H]3CC[C@@H]12 | false (0) |
| C=CCN1C(=O)[C@@]2(O[C@@H](CCn3cc([C@H](O)c4ccccc4)nn3)[C@H]([Si](C)(C)c3ccc(OC)cc3)[C@H]2C)c2cc(N3CCOC3=O)ccc21 | true (1) |
| O=C/C=C/c1ccc(/C=C/c2ccccc2)cc1 | true (1) |

---

- ASSAY_EXPLANATION: COS7 lysate on small-molecule microarray, probe aHis, 635 nm (AID 1123);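 also: z-score combines 667nm fluorescence intensity with signal-to-noise per printed compound spot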
- EXPERIMENTAL_PARAMETERS: COS7 cell lysate, fluorescence, higher = more signal
Threshold rule: composite z-score greater than or equal to 0.3 is met; below that, not met.

| COMPOUND | QUALITATIVE_LABEL |
| --- | --- |
| CCCC/C=C/[C@H]([C@@H](O)Cc1ccccc1)N(CC#Cc1ccccc1)Cc1ccccc1Br | not met |
| O=C/C=C/c1ccccc1Cl | met |
| O=C1C[C@@](C(=O)NC2CC2)(c2ccc([N+](=O)[O-])cc2)[C@@H](c2ccc(CO)cc2I)N1CC12CC3CC(CC(C3)C1)C2 | met |
| COc1cc([C@@H]2N[C@H](C(=O)O)Cc3c2[nH]c2ccccc32)cc(OC)c1OC | not met |
| COC(=O)c1c(CC[C@@H](CO)NC(=O)N[C@H](Cn2cc(-c3cncn3C)nn2)C(C)C)oc(C(C)=O)c1C(=O)OC | met |
| C=CCNC(=O)[C@H]1[C@@H]2C(=O)O[C@@H](c3ccccc3)[C@@H](c3ccccc3)N2[C@@H](c2ccccc2OCCO)[C@]12C(=O)N(C(=O)OCCOC)c1ccc(C#CCNC(N)=O)cc12 | met |
| O=C1OCCC/C=C\[C@H]2OC34C=CCN(CCN5CCOCC5)C(=O)[C@H]3N(CCCCCO)C(=O)[C@@H]4C12 (stereo partly drawn) | not met |
| COCCOC(=O)N1C(=O)[C@@]2(c3cc(C#CCCO)ccc31)[C@H](c1ccc(O)cc1)N1[C@H](c3ccccc3)[C@H](c3ccccc3)OC(=O)[C@H]1[C@@H]2C(=O)Nc1nc2ccccc2s1 | met |

---

- ASSAY_EXPLANATION: cell viability in Huh7 cells, primary screen, cytotoxicity control for HCV replication inhibitor project, CellTiter-Glo luminescence, basal, 48 h (AID 1143);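 also: Huh7 hepatoma cells carrying a hepatitis C replication reporter with no stimulus; test concentration not given here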
- EXPERIMENTAL_PARAMETERS: Huh7 HCV replicon, higher = more signal, called active from +8 up or from −8 down
Calls of active or inactive are those of the source.
z-score: recorded values

| STRUCTURE | z-score |
| --- | --- |
| NC(=O)[C@H]1[C@@H]2C(=O)O[C@@H](c3ccccc3)[C@@H](c3ccccc3)N2[C@@H](c2ccc(O)cc2)[C@]12C(=O)Nc1ccc(C#CCCO)cc12 | 0.134 (inactive) |
| CC(C)(C)OC(=O)CC[C@@]1(C(=O)NCc2ccccc2)N=C(c2ccc(OCCCO)cc2)O[C@@H]1c1ccccc1 | -4.58 (inactive) |
| COc1ccc([Si](C)(C)[C@H]2[C@H](CC(=O)N(CCO)Cc3ccccc3)O[C@@]3(C(=O)N(C)c4ccccc43)[C@@H]2C)cc1 | -5.59 (inactive) |
| CO[C@H]1O[C@H](CO)[C@@H](OC(=O)Nc2ccc3c(c2)OCO3)[C@H](OC(=O)Nc2ccccc2)[C@@H]1OC(=O)Nc1ccccc1 | -3.5 (inactive) |
| COCCOC(=O)N1C(=O)[C@@]2(c3cc(C#CC4(O)CCCCCC4)ccc31)[C@H](C(=O)N1CCCCCCC1)[C@H]1C(=O)O[C@H](c3ccccc3)[C@H](c3ccccc3)N1[C@@H]2c1ccc(O)cc1 | -4.34 (inactive) |
| O=C1c2ccccc2[C@](Cc2ccccc2I)(C(=O)NCC(F)(F)F)[C@H](c2ccc(CO)cc2)N1Cc1ccccc1C(F)(F)F | -0.254 (inactive) |

---

Each entry below lists one item and its recorded composite z-score value.
- ASSAY_EXPLANATION: small-molecule microarray binders of probe aEGFR, primary screen, biochemical, biotinylated probe, 635/667 nm fluorescence (AID 1097);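 also: probe is a biotinylated anti-EGFR antibody binding compounds printed on slides; score combines fluorescence near 667 nm and signal to noise of each spot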
- EXPERIMENTAL_PARAMETERS: higher = more signal
METRIC_NAME: composite z-score

| STRUCTURE | METRIC_NAME | READING |
| --- | --- | --- |
| COCCOC(=O)N1C(=O)[C@@]2(c3cc(C#CCCO)ccc31)[C@H](c1ccc(O)cc1)N1[C@H](c3ccccc3)[C@H](c3ccccc3)OC(=O)[C@H]1[C@@H]2C(=O)Nc1nc2ccccc2s1 | composite z-score | 0.0082 |
| CO[C@H]1COC(=O)[C@H](C)NC(=O)CC=C[C@@H](C)[C@H](NS(=O)(=O)c2ccc(C)cc2)COC(=O)CC=C[C@@H]1C | composite z-score | -0.119 |
| Cc1ccc(N2C(=O)c3ccccc3[C@](C)(C(=O)NCC(C)C)[C@@H]2c2ccc(CO)cc2)nc1 | composite z-score | 0.32 |
| COC(=O)C[C@H]1O[C@]2(C(=O)N(C)c3ccccc32)[C@@H](C)[C@@H]1[Si](C)(C)c1ccc(OC)cc1 | composite z-score | 0.0104 |

---

- ASSAY_EXPLANATION: P. aeruginosa biofilm formation inhibitors, primary screen, PAO1 strain, BacTiter-Glo luminescence, LB-PBS (AID 1144)
- EXPERIMENTAL_PARAMETERS: 12 h, higher = more signal
Below, each entry is listed with its recorded z-score.

| COMPOUND | z-score |
| --- | --- |
| COCCCNC(=O)[C@@H]1c2ccccc2C(=O)N(CC23CC4CC(CC(C4)C2)C3)[C@H]1c1ccc(CO)cc1 | -0.689 |
| C=C(C)[C@@H]1CC=C(C(O)C2C=CC3C(=O)NC(=O)C3N2Nc2ccccn2)CC1 (stereo partly drawn) | -0.555 |
| CCCC=C(CCC)[C@@H](NS(=O)(=O)c1ccc(-c2ccccc2)cc1)c1ccc(C(=O)OC)cc1 | -0.308 |
| CN(C)c1ccc(C(O)C2C=CC3C(=O)NC(=O)C3N2Nc2ccc(Cl)cc2Cl)cc1 (stereo not drawn) | -1.03 |
| NC(=O)[C@H]1[C@@H]2C(=O)O[C@@H](c3ccccc3)[C@@H](c3ccccc3)N2[C@@H](c2ccc(O)cc2)[C@]12C(=O)Nc1ccc(C#CCCO)cc12 | -0.453 |
| CC(C)[C@H]1NC(=O)[C@@]23C(=O)N[C@@H](Cc4ccccc4)C2[C@H](C)[C@@]2(C)O[C@H]2C3/C=C/C/C=C\CNC(=O)[C@H](C)NC1=O (stereo partly drawn) | 0.0406 |
| COCCOC(=O)N1C(=O)[C@@]2(c3cc(C#CC4=CCCCC4)ccc31)[C@H](C(=O)NC[C@H](O)c1ccccc1)[C@H]1C(=O)O[C@H](c3ccccc3)[C@H](c3ccccc3)N1[C@@H]2c1ccc(OCCO)cc1 | 0.329 |
| O=C1OCC=C[C@H]2OC34C=CCN(Cc5ccccc5)C(=O)[C@H]3N(CCO)C(=O)[C@@H]4[C@@H]12 (stereo partly drawn) | -0.992 |
| COc1ccc(C(O)C2C=CC3C(=O)N(C)C(=O)C3N2N2CCCCC2)cc1OCc1ccccc1 (stereo not drawn) | -0.314 |
| C=CCC(OC(C)=O)[C@@H]1[C@@H](N(Cc2cccc3ccccc23)C(=O)Cc2ccc(F)cc2)c2cc(OCCCO)ccc2N1C(=O)Cc1ccc2ccccc2c1 (stereo partly drawn) | -0.688 |
| O=C1C2C=CC(C(O)Cc3ccccc3)N(Nc3ccc([N+](=O)[O-])cc3)C2C(=O)N1c1ccccc1 (stereo not drawn) | -0.138 |
| C=CC[C@@]1(C(=O)NCC(O)CO)N=C(c2ccc(OCCCO)cc2)O[C@@H]1c1ccccc1CN=[N+]=[N-] (stereo partly drawn) | -0.427 |
| COc1ccc(CCN2C(=O)[C@@]3(c4ccc([N+](=O)[O-])cc4)CC(=O)N(CC45CC6CC(CC(C6)C4)C5)[C@@H]3c3ccc(CO)cc32)cc1 | 0.655 |
| CCC#CCN(Cc1ccccc1Br)[C@H](/C=C/c1ccccc1)[C@@H](O)Cc1ccccc1 | 0.282 |
| COc1ccc(-c2cc3c(c(-c4ccccc4)n2)[Si](C(C)C)(C(C)C)O[C@H]3c2ccccc2)cn1 | 0.0798 |
| CC1CC/C=C\[C@H]2OC34C=CCN(Cn5nnc6ccccc65)C(=O)[C@H]3N(C(C)CO)C(=O)[C@@H]4C2C(=O)O1 (stereo partly drawn) | -0.182 |
| CCCC=C(CCC)[C@@H](NS(=O)(=O)c1cccc(C(F)(F)F)c1)c1ccc(C(=O)OC)cc1 | -0.109 |
| CC(C)NC(=O)[C@@]1(Cc2ccccc2I)c2ccccc2C(=O)N(C2CCCCC2)[C@H]1c1ccc(CO)cc1 | -1.09 |
| CCOC(=O)C[C@H]1[C@H](OC(=O)c2ccccc2-c2ccccc2)[C@@H](NC(=O)c2ccc(-c3ccccc3)cc2)c2cc(OCCCO)ccc2N1C(=O)Cc1ccc(OC)cc1 | 0.846 |
| COCCCNC(=O)[C@@]1(c2ccc([N+](=O)[O-])cc2)CC(=O)N(C2CCCCC2)[C@@H]1c1ccc(CO)cc1 | 0.0997 |
| Cc1ccccc1C(O)C1C=CC2C(=O)N(c3ccccc3)C(=O)C2N1Nc1ccc(C#N)cc1 (stereo not drawn) | -1.14 |
| COC(=O)c1ccc(C#CC(NP(=O)(c2ccccc2)c2ccccc2)c2ccccc2)cc1 (stereo not drawn) | 0.107 |
| CO[C@H]1O[C@H](CO)[C@@H](OC(=O)Nc2ccc3c(c2)OCO3)[C@H](OC(=O)Nc2ccccc2)[C@@H]1OC(=O)Nc1ccccc1 | -0.22 |
| C=CCC(OC(C)=O)[C@@H]1[C@@H](N(Cc2ccc(-c3cccc(C(F)(F)F)c3)o2)C(=O)Cc2ccc(F)cc2)c2cc(OCCCO)ccc2N1C(=O)c1ccc(-c2ccccc2)cc1 (stereo partly drawn) | -0.581 |
| CC(C)=C1C(=O)C(c2ccccc2)=C2CN3C(=O)N(CCc4ccccc4)C(=O)[C@]3(Cc3ccccc3)[C@H]21 | 0.105 |
| CC(=O)NCCCC[C@@H]1NC(=O)[C@H]2C[C@@H](C(=O)NCCCCCCN(C)C)[C@@H](c3ccc(O)cc3)N2C1=O | -0.181 |
| O=C(N1CCCCC1)[C@@]1(CCS(=O)(=O)c2ccccc2)N=C(c2ccc(OCCCO)cc2)O[C@H]1c1ccccc1 | -0.725 |
| Cc1ccc(S[C@]2(C(=O)NC(C)C)CC(=O)N(C3Cc4ccccc4C3)[C@@H]2c2ccc(CO)cc2)cc1 | -0.132 |
